# credit: the supplement of paper PMC10307832

- Test system: NCI-H322M
- assay: relative viability (nuclei count vs DMSO), 5 days (fraction); higher = more cells survive
- run-conditions: first compound 0.000632 µM
assay-metric: relative viability

- CC(=O)O[C@@]12CO[C@@H]1C[C@H](O)[C@@]1(C)C(=O)[C@H](O)C3=C(C)[C@@H](OC(=O)[C@H](O)[C@@H](NC(=O)OC(C)(C)C)c4ccccc4)C[C@@](O)([C@@H](OC(=O)c4ccccc4)[C@H]21)C3(C)C [Docetaxel] + CS(=O)(=O)CCNCc1ccc(-c2ccc3ncnc(Nc4ccc(OCc5cccc(F)c5)c(Cl)c4)c3c2)o1 [Lapatinib] (partner 2 µM): 0.593
- CC(=O)O[C@@]12CO[C@@H]1C[C@H](O)[C@@]1(C)C(=O)[C@H](O)C3=C(C)[C@@H](OC(=O)[C@H](O)[C@@H](NC(=O)OC(C)(C)C)c4ccccc4)C[C@@](O)([C@@H](OC(=O)c4ccccc4)[C@H]21)C3(C)C [Docetaxel] + CC1(C)CCC(c2ccc(Cl)cc2)=C(CN2CCN(c3ccc(C(=O)NS(=O)(=O)c4ccc(N[C@H](CCN5CCOCC5)CSc5ccccc5)c(S(=O)(=O)C(F)(F)F)c4)cc3)CC2)C1 [Navitoclax] (partner 0.5 µM): 1.13
- CC(=O)O[C@@]12CO[C@@H]1C[C@H](O)[C@@]1(C)C(=O)[C@H](O)C3=C(C)[C@@H](OC(=O)[C@H](O)[C@@H](NC(=O)OC(C)(C)C)c4ccccc4)C[C@@](O)([C@@H](OC(=O)c4ccccc4)[C@H]21)C3(C)C [Docetaxel] + Nc1nc2[nH]cc(CCc3ccc(C(=O)N[C@@H](CCC(=O)O)C(=O)O)cc3)c2c(=O)[nH]1 [Pemetrexed] (partner 0.2 µM): 0.602
